target: ALK (Homo sapiens, UniProt Q9UM73); construct: host or cells: baculovirus expression system; assay: ALK Kinase Assay (ELISA/TRF, PLC-γ substrate); type: biochemical; conditions: ALK kinase inhibition, 1 μM ATP; read-out: ALK Potency
Sequence (Q9UM73 19-1620): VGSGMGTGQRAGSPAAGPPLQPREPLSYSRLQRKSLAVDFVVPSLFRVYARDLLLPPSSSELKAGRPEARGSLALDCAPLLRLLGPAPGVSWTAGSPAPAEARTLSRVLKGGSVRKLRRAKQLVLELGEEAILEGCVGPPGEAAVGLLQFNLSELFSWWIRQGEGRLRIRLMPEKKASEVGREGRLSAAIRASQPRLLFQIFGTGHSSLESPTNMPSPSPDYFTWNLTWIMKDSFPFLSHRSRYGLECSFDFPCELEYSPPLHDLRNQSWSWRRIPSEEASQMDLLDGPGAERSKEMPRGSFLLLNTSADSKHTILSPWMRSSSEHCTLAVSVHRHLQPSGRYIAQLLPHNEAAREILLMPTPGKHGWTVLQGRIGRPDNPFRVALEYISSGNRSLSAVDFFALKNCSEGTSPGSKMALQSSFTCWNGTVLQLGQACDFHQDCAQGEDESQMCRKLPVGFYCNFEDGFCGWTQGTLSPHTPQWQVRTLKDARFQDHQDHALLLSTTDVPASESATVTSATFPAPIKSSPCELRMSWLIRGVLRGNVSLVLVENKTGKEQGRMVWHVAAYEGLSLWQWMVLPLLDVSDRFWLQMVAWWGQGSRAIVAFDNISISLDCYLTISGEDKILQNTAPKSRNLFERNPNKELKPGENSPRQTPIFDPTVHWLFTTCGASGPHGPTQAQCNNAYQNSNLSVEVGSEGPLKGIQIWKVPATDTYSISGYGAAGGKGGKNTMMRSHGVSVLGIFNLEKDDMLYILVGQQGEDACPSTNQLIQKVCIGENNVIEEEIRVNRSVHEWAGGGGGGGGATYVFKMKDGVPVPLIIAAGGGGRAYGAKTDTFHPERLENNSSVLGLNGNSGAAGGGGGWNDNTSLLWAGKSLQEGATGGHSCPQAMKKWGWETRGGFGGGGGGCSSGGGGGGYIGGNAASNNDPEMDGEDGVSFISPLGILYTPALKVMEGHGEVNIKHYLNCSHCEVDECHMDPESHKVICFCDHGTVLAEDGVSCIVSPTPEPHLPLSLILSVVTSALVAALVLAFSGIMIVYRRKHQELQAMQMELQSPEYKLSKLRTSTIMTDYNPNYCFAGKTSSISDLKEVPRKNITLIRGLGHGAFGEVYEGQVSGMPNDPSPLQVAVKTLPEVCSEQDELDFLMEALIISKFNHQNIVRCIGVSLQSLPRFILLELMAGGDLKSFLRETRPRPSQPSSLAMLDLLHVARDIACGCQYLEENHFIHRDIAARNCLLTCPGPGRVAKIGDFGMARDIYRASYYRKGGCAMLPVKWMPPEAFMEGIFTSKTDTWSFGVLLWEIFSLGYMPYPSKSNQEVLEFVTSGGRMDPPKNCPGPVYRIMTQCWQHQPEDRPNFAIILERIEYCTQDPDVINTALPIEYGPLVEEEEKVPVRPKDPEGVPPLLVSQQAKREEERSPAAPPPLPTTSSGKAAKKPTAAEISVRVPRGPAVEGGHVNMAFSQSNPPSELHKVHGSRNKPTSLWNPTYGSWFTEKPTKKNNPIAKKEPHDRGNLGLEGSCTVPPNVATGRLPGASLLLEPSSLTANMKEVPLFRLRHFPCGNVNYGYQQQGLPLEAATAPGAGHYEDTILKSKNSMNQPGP
Observable: IC50

Here is how some molecules turned out for IC50.
{"Molecule": "COc1ccccc1-c1ccc2cnc(Nc3ccc4c(c3OC)CC(N3CCOCC3)CCC4)nn12 (racemic)", "Value Observed": "0.1 to 1 µM"}
{"Molecule": "COc1ccccc1-c1ccc2cnc(Nc3cnn(C4CCNCC4)c3)nn12", "Value Observed": "< 0.1 µM"}
{"Molecule": "COc1cc(Nc2ncc3ccc(-c4cccc(S(C)(=O)=O)c4)n3n2)ccc1C1CCN(CC(N)=O)CC1", "Value Observed": "0.1 to 1 µM"}

Shifting focus to the molecule that follows.
Request: Tell me measured IC50 for CC(C)(C)NS(=O)(=O)c1cccc(-c2ccc3cnc(Nc4cccc(C(=O)N5CCOCC5)c4)nn23)c1 please.
Result: 1 to 10 µM

* * *

target: ALK (Homo sapiens, UniProt Q9UM73); construct: host or cells: baculovirus expression system; assay: ALK Kinase Assay (ELISA/TRF, PLC-γ substrate); format: biochemical; details: ALK kinase inhibition, 1 μM ATP; read-out: ALK Potency
pIC50: −log10 of the molar value.
Recorded pIC50, one value per entry.

The following molecules have reported results that may help.
{"Molecule": "OC[C@@H](O)CN1CCC(c2ccc(Nc3ncc4ccc(-c5cccc(Cl)c5)n4n3)cc2)CC1 [Example 1130]", "Value Observed": "> 7.00"}
{"Molecule": "COc1cc(N2CCC(N3CC[C@H](O)C3)CC2)ccc1Nc1ncc2ccc(-c3ccccc3OC)n2n1 [Example 483]", "Value Observed": "> 7.00"}
{"Molecule": "CN(c1ccccc1-c1ccc2cnc(Nc3cnn(CCN4CCOCC4)c3)nn12)S(C)(=O)=O [Example 1193]", "Value Observed": "5.00 to 6.00"}
{"Molecule": "COc1cc(CN2CCOCC2)ccc1Nc1ncc2ccc(-c3ccccc3OC)n2n1 [Example 1220]", "Value Observed": "> 7.00"}
{"Molecule": "COc1ccc(Nc2ncc3cc4ccccc4n3n2)cc1 [Example 752]", "Value Observed": "< 5.00"}

Request: Give the reported pIC50 for this molecule. CS(=O)(=O)c1cccc(-c2ccc3cnc(N4CCC(Oc5cccc(N)c5)CC4)nn23)c1 [Example 563]
Result: < 5.00

Request: Please report pIC50 for the following molecule: COc1cc(C2CCNCC2)ccc1Nc1ncc2ccc(N3CC(c4ccccc4)CC3=O)n2n1 (stereo not shown) [Example 719]
Result: 6.00 to 7.00

* * *

target: JAK2 (Homo sapiens, UniProt O60674); construct: host or cells: baculovirus expression system; assay: Recombinant Human JAK2 Kinase Assay (TRF); type: biochemical; details: JAK2 kinase inhibition, 0.2 μM ATP; read-out: JAK2 Potency
Sequence (O60674 whole entry): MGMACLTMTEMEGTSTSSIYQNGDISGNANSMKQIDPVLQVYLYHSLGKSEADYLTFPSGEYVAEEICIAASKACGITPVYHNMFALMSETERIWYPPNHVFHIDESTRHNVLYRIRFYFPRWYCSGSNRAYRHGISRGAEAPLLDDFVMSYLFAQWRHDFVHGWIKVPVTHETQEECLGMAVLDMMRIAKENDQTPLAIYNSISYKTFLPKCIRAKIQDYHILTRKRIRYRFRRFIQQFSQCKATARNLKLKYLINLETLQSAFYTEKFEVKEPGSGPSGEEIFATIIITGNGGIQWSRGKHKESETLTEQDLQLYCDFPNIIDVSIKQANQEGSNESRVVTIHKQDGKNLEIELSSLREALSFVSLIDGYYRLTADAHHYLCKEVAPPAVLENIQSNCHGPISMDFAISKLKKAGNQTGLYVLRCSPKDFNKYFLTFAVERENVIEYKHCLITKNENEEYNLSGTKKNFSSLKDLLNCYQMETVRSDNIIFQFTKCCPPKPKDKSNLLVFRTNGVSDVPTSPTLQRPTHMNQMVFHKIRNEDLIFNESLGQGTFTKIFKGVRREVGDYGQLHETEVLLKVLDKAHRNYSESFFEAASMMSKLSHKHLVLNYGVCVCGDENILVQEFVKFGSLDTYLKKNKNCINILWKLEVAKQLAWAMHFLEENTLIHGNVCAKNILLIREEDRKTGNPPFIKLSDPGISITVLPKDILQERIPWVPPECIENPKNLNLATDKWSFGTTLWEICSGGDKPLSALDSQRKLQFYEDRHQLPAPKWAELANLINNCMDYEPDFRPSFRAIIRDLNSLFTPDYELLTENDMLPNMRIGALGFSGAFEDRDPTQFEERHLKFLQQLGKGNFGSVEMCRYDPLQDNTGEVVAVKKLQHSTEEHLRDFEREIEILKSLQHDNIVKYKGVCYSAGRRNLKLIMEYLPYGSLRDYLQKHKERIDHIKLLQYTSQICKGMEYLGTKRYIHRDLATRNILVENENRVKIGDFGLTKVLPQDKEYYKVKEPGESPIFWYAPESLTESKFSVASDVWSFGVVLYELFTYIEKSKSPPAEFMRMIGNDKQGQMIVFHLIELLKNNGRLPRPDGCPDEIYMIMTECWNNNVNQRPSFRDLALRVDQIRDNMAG
Observable: IC50

Request: Please report the measured IC50 for COc1ccccc1-c1cc2cnc(Nc3ccc(N4CCN(C)CC4)cc3)nn2c1
Result: 0.1 to 1 µM

Request: Identify measured IC50 corresponding to COc1cc2c(cc1Nc1ncc3ccc(-c4ccccc4OC)n3n1)CN(CC(N)=O)C2
Result: < 0.1 µM

Request: Dear colleague, please send me the reported IC50 for COc1cc([C@H]2CC[C@H](N3CCOCC3)CC2)ccc1Nc1ncc2ccc(-c3ccccc3N(C)S(C)(=O)=O)n2n1 when you can.
Result: 0.1 to 1 µM
